What MIC was measured for each of the following?
system: Staphylococcus aureus; assay: Antibacterial activity against erythromycin-resistant Staphylococcus aureus NRS-70 after 18 hrs by two fold serial dilution method; assay type: functional; settings: NRS-70, 18 h

Please list MIC recorded for the compound CC(C)c1cc2c(cc1Br)[C@@]1(C)CCC[C@@](C)(C(=O)O)[C@@H]1C/C2=N\OCCCNC(=O)c1ccc(Br)s1 2.38 to 3.82 µM

Please list MIC recorded for the compound CC(C)c1cc2c(cc1Br)[C@@]1(C)CCC[C@@](C)(C(=O)O)[C@@H]1C/C2=N\OCCCNC(=O)c1cc2ccccc2s1 > 40 µM

Please list MIC recorded for the compound CN[C@H](CC(C)C)C(=O)N[C@H]1C(=O)N[C@@H](CC(N)=O)C(=O)N[C@H]2C(=O)N[C@H]3C(=O)N[C@H](C(=O)N[C@H](C(=O)O)c4cc(O)cc(O)c4-c4cc3ccc4O)[C@H](O)c3ccc(c(Cl)c3)Oc3cc2cc(c3O[C@@H]2O[C@H](CO)[C@@H](O)[C@H](O)[C@H]2O[C@H]2C[C@](C)(N)[C@H](O)[C@H](C)O2)Oc2ccc(cc2Cl)[C@H]1O < 1.72 µM

----------
What MIC was measured for each of the following?
tested on: Staphylococcus aureus; assay: Antibacterial activity against gentamicin-resistant Staphylococcus aureus NRS-108 after 18 hrs by two fold serial dilution method; assay type: functional; details: NRS-108, 18 h

Please list MIC recorded for the compound CC(C)c1cc2c(cc1Br)[C@@]1(C)CCC[C@@](C)(C(=O)O)[C@@H]1C/C2=N\OCCNC(=O)c1ccc(Cl)s1 2.62 to 4.19 µM

Please list MIC recorded for the compound CN[C@H](CC(C)C)C(=O)N[C@H]1C(=O)N[C@@H](CC(N)=O)C(=O)N[C@H]2C(=O)N[C@H]3C(=O)N[C@H](C(=O)N[C@H](C(=O)O)c4cc(O)cc(O)c4-c4cc3ccc4O)[C@H](O)c3ccc(c(Cl)c3)Oc3cc2cc(c3O[C@@H]2O[C@H](CO)[C@@H](O)[C@H](O)[C@H]2O[C@H]2C[C@](C)(N)[C@H](O)[C@H](C)O2)Oc2ccc(cc2Cl)[C@H]1O [VANCOMYCIN] < 1.72 µM

Please list MIC recorded for the compound CC(C)c1cc2c(cc1Br)[C@@]1(C)CCC[C@@](C)(C(=O)O)[C@@H]1C/C2=N\OCCCNC(=O)c1ccc(Br)s1 2.38 to 3.82 µM

Please list MIC recorded for the compound CC(C)c1cc2c(cc1Br)[C@@]1(C)CCC[C@@](C)(C(=O)O)[C@@H]1C/C2=N\OCCCNC(=O)c1cc2ccccc2s1 > 40 µM

Please list MIC recorded for the compound CC(C)c1cc2c(cc1Br)[C@@]1(C)CCC[C@@](C)(C(=O)O)[C@@H]1C/C2=N\OCCCNC(=O)c1cc(Br)cs1 2.38 to 3.82 µM

Please list MIC recorded for the compound CC(C)c1cc2c(cc1Br)[C@@]1(C)CCC[C@@](C)(C(=O)O)[C@@H]1C/C2=N\OCCCNC(=O)Cc1cccc(C(F)(F)F)c1 2.39 to 3.84 µM

Please list MIC recorded for the compound CC(C)c1cc2c(cc1Br)[C@@]1(C)CCC[C@@](C)(C(=O)O)[C@@H]1C/C2=N\OCCCNC(=O)c1cccc(C(F)(F)F)c1 3.92 to 4.91 µM

Please list MIC recorded for the compound CN(C)[C@@H]1C(O)=C(C(N)=O)C(=O)[C@@]2(O)C(O)=C3C(=O)c4c(O)cccc4[C@@](C)(O)[C@H]3C[C@@H]12 [TETRACYCLINE] < 7.04 µM

Please list MIC recorded for the compound CC(C)c1cc2c(cc1Br)[C@@]1(C)CCC[C@@](C)(C(=O)O)[C@@H]1C/C2=N\OCCCNC(=O)c1ccc(C(F)(F)F)cc1 2.45 to 3.92 µM

Please list MIC recorded for the compound CC(C)c1cc2c(cc1Br)[C@@]1(C)CCC[C@@](C)(C(=O)O)[C@@H]1C/C2=N\OCCNC(=O)c1cccc(C(F)(F)F)c1 2.5 to 4.01 µM

Please list MIC recorded for the compound CC(C)c1cc2c(cc1Br)[C@@]1(C)CCC[C@@](C)(C(=O)O)[C@@H]1C/C2=N\OCCNC(=O)c1ccc(Br)s1 2.44 to 3.9 µM

Please list MIC recorded for the compound CC(C)c1cc2c(cc1Br)[C@@]1(C)CCC[C@@](C)(C(=O)O)[C@@H]1C/C2=N\OCCNC(=O)c1cc2ccccc2s1 2.55 to 4.09 µM

Please list MIC recorded for the compound CC(C)c1cc2c(cc1Br)[C@@]1(C)CCC[C@@](C)(C(=O)O)[C@@H]1C/C2=N\OCCCNC(=O)Cc1ccc(C(F)(F)F)cc1 2.39 to 3.84 µM

Please list MIC recorded for the compound CC(C)c1cc2c(cc1Br)[C@@]1(C)CCC[C@@](C)(C(=O)O)[C@@H]1C/C2=N\OCCCNC(=O)c1ccc(Cl)s1 2.56 to 4.1 µM

Please list MIC recorded for the compound CC(C)c1cc2c(cc1Br)[C@@]1(C)CCC[C@@](C)(C(=O)O)[C@@H]1C/C2=N\OCCCNC(=O)c1ccc[nH]1 2.79 to 4.48 µM

----------
tested on: Staphylococcus aureus; assay: Antibacterial activity against erythromycin-resistant Staphylococcus aureus NRS-70 after 18 hrs by two fold serial dilution method; format: functional; conditions: NRS-70, 18 h
RESULT TYPE: MIC

Please list MIC recorded for the compound CN(C)[C@@H]1C(O)=C(C(N)=O)C(=O)[C@@]2(O)C(O)=C3C(=O)c4c(O)cccc4[C@@](C)(O)[C@H]3C[C@@H]12 < 7.04 µM

Please list MIC recorded for the compound CC(C)c1cc2c(cc1Br)[C@@]1(C)CCC[C@@](C)(C(=O)O)[C@@H]1C/C2=N\OCCCNC(=O)c1ccc[nH]1 2.79 to 4.48 µM

Please list MIC recorded for the compound CC(C)c1cc2c(cc1Br)[C@@]1(C)CCC[C@@](C)(C(=O)O)[C@@H]1C/C2=N\OCCCNC(=O)Cc1ccc(C(F)(F)F)cc1 2.39 to 3.84 µM

Please list MIC recorded for the compound CC(C)c1cc2c(cc1Br)[C@@]1(C)CCC[C@@](C)(C(=O)O)[C@@H]1C/C2=N\OCCNC(=O)c1cc2ccccc2s1 2.04 to 4.09 µM

Please list MIC recorded for the compound CC(C)c1cc2c(cc1Br)[C@@]1(C)CCC[C@@](C)(C(=O)O)[C@@H]1C/C2=N\OCCCNC(=O)c1ccc(C(F)(F)F)cc1 1.96 to 2.45 µM
